# protocol summary: ATG_M_32_CIS: Attagene CIS-FACTORIAL HepG2 Assay for M32 Transcription Factor (Internal Marker) (AID 2282949);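 also: background control marker of the multiplexed CIS panel rather than a real target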
# measurement setup: HepG2 Attagene cis-factorial M32 reporter, mRNA; actives raise or lower the signal
Active and inactive are the calls of the source. The calls were made as follows: active = hit-call score of the fitted dose curve at least 0.9, where 1 is the maximum; inactive = score below 0.9.
Answer with one of the outcomes given here: active, inactive

The following compounds have reported results that may help.
compound=CCC[Si](OC)(OC)OC assigned_class=inactive
compound=C=C1C[C@H]2[C@@H]3C=C(C)C4=CC(=O)CC[C@]4(C)[C@H]3CC[C@]2(C)[C@@]1(OC(C)=O)C(C)=O assigned_class=inactive

// param item: `CCOB(OCC)OCC` ; yields the recorded call
inactive

Tell me the assay call for `CC(C)c1cc(C(C)C)cc(C(C)C)c1` please.
active

Can you look up the reported call for `CCCC/C=C/C=C\C=O` for me?
inactive

How was `O=C(O)/C=C/c1ccccc1` classified in this test?
inactive

Hi, sorry to bother you, what did the test record for `C=C(C)OC(C)=O` ?
inactive

Tell me the assay call for CCCCC1CCC(=O)O1 (stereo not given) please.
inactive

GET /call?item= `Cc1c(Cl)cccc1Cl` returns the recorded outcome of this test.
inactive

Fill in: this test's call for `O=C(Cl)c1c(Cl)c(Cl)c(C(=O)Cl)c(Cl)c1Cl` is ___
inactive

State the result this test recorded for `CN(C)c1ccc2nc3ccc(=[N+](C)C)cc-3sc2c1` .
inactive

====

# target under test: Retinoic acid receptor alpha (Homo sapiens)
# protocol summary: ATG_DR5_RAR_CIS: Attagene CIS-FACTORIAL HepG2 Assay for human Retinoic Acid Receptor Alpha (RARE), DR5 submotif (AID 2282934)
# measurement setup: HepG2 Attagene cis-factorial RARE DR5 reporter, mRNA; actives raise or lower the signal
Activity calls are given as the source filed them. How the source made its calls: active means hit-call score of the fitted dose curve at least 0.9, where 1 is the maximum; inactive means score below 0.9.
Please reply with one of these outcomes: active, inactive

For orientation, consider the following solved cases.
compound="CC1OC(=O)C(C)OC1=O (stereo not given)" assigned_class=inactive
compound=Cn1ccnc1 assigned_class=inactive
compound=CCOC(=O)C1=NOC(c2ccccc2)(c2ccccc2)C1 assigned_class=inactive
compound=COc1cc(O)c(C(=O)c2ccccc2)cc1S(=O)(=O)O assigned_class=inactive
compound=CCc1cccc(CC)c1 assigned_class=inactive

What outcome does the record of this test show for `C=Cc1cccc(C)c1` ?
inactive

Outcome? `Oc1ccc(-c2ccccc2)c(Cl)c1`
inactive

What was the test verdict on `C=C(C)OC(C)=O` ?
inactive

So what was the verdict on `C1CCSC1` in this test?
inactive

====

# target under test: Aryl hydrocarbon receptor (Homo sapiens) (UniProt P35869)
# Sequence (P35869 whole entry, looked up): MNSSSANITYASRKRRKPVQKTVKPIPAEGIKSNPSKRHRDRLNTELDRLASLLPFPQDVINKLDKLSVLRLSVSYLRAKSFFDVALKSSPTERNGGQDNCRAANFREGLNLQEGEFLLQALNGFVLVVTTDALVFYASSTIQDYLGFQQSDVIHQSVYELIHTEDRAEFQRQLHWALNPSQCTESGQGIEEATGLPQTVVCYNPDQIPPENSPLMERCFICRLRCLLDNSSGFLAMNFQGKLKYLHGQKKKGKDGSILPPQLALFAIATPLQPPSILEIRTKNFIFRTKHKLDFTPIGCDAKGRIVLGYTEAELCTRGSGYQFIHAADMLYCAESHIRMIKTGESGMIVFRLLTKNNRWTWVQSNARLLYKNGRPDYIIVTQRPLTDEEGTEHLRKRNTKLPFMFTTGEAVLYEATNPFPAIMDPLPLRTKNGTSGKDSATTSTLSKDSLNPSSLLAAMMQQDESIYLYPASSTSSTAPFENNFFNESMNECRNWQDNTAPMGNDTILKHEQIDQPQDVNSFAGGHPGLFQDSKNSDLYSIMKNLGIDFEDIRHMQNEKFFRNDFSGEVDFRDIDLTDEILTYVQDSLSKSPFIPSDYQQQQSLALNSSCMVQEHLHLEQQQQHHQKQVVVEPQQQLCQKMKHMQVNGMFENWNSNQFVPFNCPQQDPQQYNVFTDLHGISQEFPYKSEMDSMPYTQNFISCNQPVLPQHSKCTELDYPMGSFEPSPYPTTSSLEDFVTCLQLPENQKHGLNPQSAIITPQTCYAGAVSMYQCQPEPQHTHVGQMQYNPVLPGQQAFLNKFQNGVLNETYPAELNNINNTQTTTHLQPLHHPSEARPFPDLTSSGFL
# protocol summary: ATG_Ahr_CIS: Attagene CIS-FACTORIAL HepG2 Assay for human Aryl Hydrocarbon Receptor (Ahr) (AID 2282930)
# measurement setup: HepG2 AhR cis-factorial reporter transcription; actives raise or lower the signal
Calls of active or inactive are those of the source. How the source made its calls: active means hit-call score of the fitted dose curve at least 0.9, where 1 is the maximum; inactive means score below 0.9.
Allowed answers: active, inactive

Here are 3 compounds together with their reported answers.
compound="CCC(C)c1ccccc1 (configuration not stated)" assigned_class=inactive
compound=CCCCCCCCCCCCCc1ccccc1 assigned_class=inactive
compound="O=C1CCCCC1C1CCCCC1 (configuration not stated)" assigned_class=inactive

Recorded test call requested for `O=C(O[C@@H]1Cc2c(O)cc(O)cc2O[C@@H]1c1cc(O)c(O)c(O)c1)c1cc(O)c(O)c(O)c1`
inactive

Record lookup: outcome of this test for `COC(=O)C=Cc1ccccc1` ?
inactive

Outcome? `CCCCCCCCCCCC(=O)OCC`
inactive

I would be grateful if you could indicate the recorded call for `C=C[Si](OCCOC)(OCCOC)OCCOC` .
inactive

Please share the test call associated with `CCN1CCCC1=O` .
inactive

Could you kindly confirm the outcome this assay logged for `O=C(O)C(F)(F)C(F)(F)C(F)(F)C(F)(F)C(=O)O` ?
inactive

# lookup: test call for `CCCCCCCCCCCC(C)=O`
inactive

What did this assay record as the result for `COC(OC)(C(=O)c1ccccc1)c1ccccc1` ?
inactive

Name the outcome recorded for `CCOC(=O)c1ccc(C)cc1` in the assay.
inactive

====

# Read-out: Monokine induced gamma interferon (MIG), CXCL9 (gene 4283)
# protocol summary: BSK_3C_MIG: BioMAP Diversity Plus: 3C Assay for Monokine induced gamma interferon (MIG) Biomarker Activity (AID 2283021)
# measurement setup: primary human endothelial cells (HUVEC); actives raise or lower the signal
Activity calls are given as the source filed them. How the source made its calls: active means hit-call score of the fitted dose curve at least 0.9, where 1 is the maximum; inactive means score below 0.9.
result type: outcome

Illustrative cases are given below, each with its answer.
compound=c1ccc2c(c1)[nH]c1ccccc12 result=inactive
compound=Oc1ccc(/C=C/c2cc(O)cc(O)c2)cc1 result=inactive
compound=Oc1ccccc1Cc1ccccc1O result=inactive
compound=Cc1ccc([N+](=O)[O-])cc1N result=inactive

As a next step, examine the compound that follows.
Look up outcome of `C=CC(=O)OCCCCCCCC(C)C` and report it.
inactive

====

# target under test: Estrogen receptor (Homo sapiens) + Estrogen receptor beta (Homo sapiens) (UniProt P03372+Q92731)
# Sequence (P03372 whole entry, looked up, the tested form may be a part): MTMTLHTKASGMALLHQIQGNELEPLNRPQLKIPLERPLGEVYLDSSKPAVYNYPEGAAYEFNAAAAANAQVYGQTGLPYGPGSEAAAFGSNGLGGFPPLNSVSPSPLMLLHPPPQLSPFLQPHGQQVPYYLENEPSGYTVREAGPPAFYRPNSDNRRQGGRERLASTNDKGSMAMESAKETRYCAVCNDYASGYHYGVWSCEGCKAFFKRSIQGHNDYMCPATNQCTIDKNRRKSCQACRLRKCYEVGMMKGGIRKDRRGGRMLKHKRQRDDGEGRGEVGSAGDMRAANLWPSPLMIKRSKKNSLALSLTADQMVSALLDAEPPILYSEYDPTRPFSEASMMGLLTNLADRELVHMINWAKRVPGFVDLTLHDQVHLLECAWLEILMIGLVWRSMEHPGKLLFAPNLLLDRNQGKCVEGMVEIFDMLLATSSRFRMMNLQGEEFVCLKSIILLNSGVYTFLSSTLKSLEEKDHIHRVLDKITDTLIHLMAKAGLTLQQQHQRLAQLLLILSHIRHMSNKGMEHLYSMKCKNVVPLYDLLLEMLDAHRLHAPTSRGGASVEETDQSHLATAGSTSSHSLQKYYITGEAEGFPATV
# Sequence (Q92731 whole entry, looked up, the tested form may be a part): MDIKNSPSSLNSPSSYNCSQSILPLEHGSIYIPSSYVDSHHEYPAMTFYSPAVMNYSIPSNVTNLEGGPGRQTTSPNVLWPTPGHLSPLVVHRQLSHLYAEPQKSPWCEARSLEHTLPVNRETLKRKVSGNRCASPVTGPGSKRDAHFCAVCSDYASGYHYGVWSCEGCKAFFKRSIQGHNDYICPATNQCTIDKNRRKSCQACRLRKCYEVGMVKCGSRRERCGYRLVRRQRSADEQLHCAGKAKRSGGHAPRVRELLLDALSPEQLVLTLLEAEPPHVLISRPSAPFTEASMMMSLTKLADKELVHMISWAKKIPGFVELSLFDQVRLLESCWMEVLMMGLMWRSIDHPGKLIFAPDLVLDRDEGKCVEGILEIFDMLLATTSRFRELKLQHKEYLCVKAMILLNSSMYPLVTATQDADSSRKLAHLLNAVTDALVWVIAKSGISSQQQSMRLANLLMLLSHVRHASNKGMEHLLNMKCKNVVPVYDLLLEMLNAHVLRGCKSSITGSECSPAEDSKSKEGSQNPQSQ
# protocol summary: OT_ER_ERaERb_1440: Odyssey Thera (OT) 24-hour HEK293T Protein-Complementation Assay for Estrogen Receptor-alpha/-beta Homodimer (AID 2283356);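 also: heteromer of ER alpha and ER beta binding domains; hits raise reporter fluorescence and both agonists and antagonists give an increase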
Inconclusive results are not listed. Calls of active or inactive are those of the source. Rule for the calls: active = hit-call score of the fitted dose curve at least 0.9, where 1 is the maximum; inconclusive = response in the unintended direction; inactive = score below 0.9.
Classes to choose from: active, inactive

Worked set:
compound_string=O=C(OCc1ccccc1)c1ccc(O)cc1 assigned_class=active
compound_string=CCCCCCOC(=O)CCCCC(=O)OCCCCCC assigned_class=inactive
compound_string=Cc1c(C(=O)c2c[nH]n(C)c2=O)ccc(S(C)(=O)=O)c1C1=NOCC1 assigned_class=inactive
compound_string=NC(=O)Nc1ccccc1 assigned_class=inactive

Lab note: next compound to report on.
Please state the recorded outcome for this compound: `CC(C)c1cc(C(C)C)cc(C(C)C)c1`
inactive

====

# target under test: Estrogen receptor (Homo sapiens) (UniProt P03372)
# protocol summary: CCTE_Deisenroth_AIME_384WELL_LUC_Shift: CCTE's 384-well Estrogen Receptor Transactivation Assay with AIME metabolic competence data shift (ERTA luciferase; difference in metabolism positive and negative), Deisenroth Lab (AID 2284041);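 also: shift is response with S9 minus without S9 so positive means metabolism raised ER signal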
Calls of active or inactive are those of the source. The calls were made as follows: active = hit-call score of the fitted dose curve at least 0.9, where 1 is the maximum; inactive = score below 0.9.
Choose the fitting class; nothing outside active, inactive is accepted.

# count of solved cases: 5
compound=CC(C)c1cc(C(C)C)cc(C(C)C)c1 target_under_test="Estrogen receptor (Homo sapiens) (UniProt P03372)" assigned_class=inactive
compound="CCCCCC[C@@H](O)C/C=C\\CCCCCCCC(=O)OCC(O)CO (stereo not given in full)" target_under_test="Estrogen receptor (Homo sapiens) (UniProt P03372)" assigned_class=inactive
compound="CCC(C)(O)CCCC(C)C (stereo not given)" target_under_test="Estrogen receptor (Homo sapiens) (UniProt P03372)" assigned_class=active
compound=CCCCNC(=S)NCCCC target_under_test="Estrogen receptor (Homo sapiens) (UniProt P03372)" assigned_class=inactive
compound=CC(CCC(=O)O)(c1ccc(O)cc1)c1ccc(O)cc1 target_under_test="Estrogen receptor (Homo sapiens) (UniProt P03372)" assigned_class=active

Now turn to the next compound.
Any idea what this test logged for `O=c1c(O)c(-c2ccc(O)cc2O)oc2cc(O)cc(O)c12` ?
inactive

====

# target under test: Estrogen receptor beta (Homo sapiens) (UniProt Q92731)
# protocol summary: OT_ER_ERbERb_0480: Odyssey Thera (OT) 8-hour HEK293T Protein-Complementation Assay for Estrogen Receptor-beta/-beta Homodimer (AID 2283357);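 also: active means signal gain over DMSO baseline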
Inconclusive results are not listed. Active and inactive are the calls of the source. The calls were made as follows: active = hit-call score of the fitted dose curve at least 0.9, where 1 is the maximum; inconclusive = response in the unintended direction; inactive = score below 0.9.
Response enum: Y (active), N (inactive)

For orientation, consider the following solved cases.
molecule=CO[Si](C)(C)OC target_under_test="Estrogen receptor beta (Homo sapiens) (UniProt Q92731)" assigned_class=N
molecule=c1ccc(Nc2cccc3ccccc23)cc1 target_under_test="Estrogen receptor beta (Homo sapiens) (UniProt Q92731)" assigned_class=Y
molecule=N#Cc1ccc(C(c2ccc(C#N)cc2)n2cncn2)cc1 target_under_test="Estrogen receptor beta (Homo sapiens) (UniProt Q92731)" assigned_class=N

// return assay outcome for `CCCCCCCOC(=O)c1ccc(O)cc1`
Y

# fetch the recorded call for `Oc1ccc(-c2ccccc2)c(Cl)c1` here
N

====

# protocol summary: ATG_BRE_CIS: Attagene CIS-FACTORIAL HepG2 Assay for human Bone Morphogenetic Protein (BMP) Response Element (BRE) (AID 2282933)
# measurement setup: HepG2 BMP response element reporter, Attagene transcription factor profiling; actives raise or lower the signal
Calls of active or inactive are those of the source. How the source made its calls: active means hit-call score of the fitted dose curve at least 0.9, where 1 is the maximum; inactive means score below 0.9. Peptide text beside a SMILES is read from it.
I would appreciate it if you answered using one of these outcomes: Yes = active, No = inactive

Completed entries (count: 4):
compound=CC(C)c1cccc(C(C)C)c1N assigned_class=No
compound=C=C[C@@]1(C)CC(=O)[C@]2(O)[C@@]3(C)[C@@H](O)CCC(C)(C)[C@@H]3[C@H](O)[C@H](OC(C)=O)[C@@]2(C)O1 assigned_class=No
compound="C=C(C)C(=O)OCC(O)COc1ccc(C(C)(C)c2ccc(OCC(O)COC(=O)C(=C)C)cc2)cc1 (configuration not stated)" assigned_class=Yes
compound=OCCCc1ccccc1 assigned_class=No

Could you kindly confirm the outcome this assay logged for `C=CC(=O)NC(C)(C)C` ?
No

Outcome logged for CCCCOCC(C)O (configuration not stated) in this assay:
No

Hello, I am checking results. What call was entered for COC(=O)[C@H](Cc1ccccc1)NC(=O)[C@@H](N)CC(=O)O (H-Asp-Phe-OMe) ?
No

Give the logged outcome of this assay for the following compound: CCCCCC[C@@H](O)C/C=C\CCCCCCCC(=O)OCC(O)CO (some centres not stated)
No

# fetch the recorded call for CC(CC=O)CC(C)(C)C (configuration not stated) here
No

Outcome? CC1CCC(C(C)(C)S)C(=O)C1 (configuration not stated)
No

What classification did `O=C(Cl)c1c(Cl)c(Cl)c(C(=O)Cl)c(Cl)c1Cl` end up with in this test?
No
